Test system: UACC-62
Test: NCI tumour cell line growth inhibition, 48 h
Active and inactive are the calls of the source. Rule as the data show it: active = GI50 up to about 1.1 µM and inactive = higher.
Form entry, call: pick from active, inactive

Some solved cases for reference:
Compound	Class Assignment
C[C@]12CC[C@@H]3c4ccc(OS(N)(=O)=O)cc4CC[C@H]3[C@@H]1CCC2=O [EMATE]	inactive
CC(=O)Nc1ccc(C(=O)NN2C(=O)C(Cl)C2c2ccc([N+](=O)[O-])cc2)cc1 (stereo not given)	inactive
O=C1CCC(c2ccccc2)(c2ccccc2)CC1	inactive

Prompt line: Which outcome was entered for the compound CNC(=O)CC1NC(=O)c2csc(n2)-c2ccc(-c3nc(C4=NC(C(=O)N5CCCC5C(N)=O)CO4)cs3)nc2-c2csc(n2)-c2csc(n2)C(C(C)C)NC(=O)CNC(=O)c2csc(n2)C(C(C)C)NC(=O)c2nc1sc2C (stereo not given) in this test?
Response line: active

Prompt line: Which outcome was entered for the compound C#CCSc1nc(N)c2ncn(C3OC(COP(=O)(O)O)C(O)C3O)c2n1 (stereo not given) in this test?
Response line: inactive

Prompt line: Which outcome was entered for the compound O=C(O)COc1cc(-c2ccccc2)nc2ccc(F)cc12 in this test?
Response line: inactive

Prompt line: Which outcome was entered for the compound NCc1ccccc1.O=C(O)NCc1ccccc1 in this test?
Response line: inactive

Prompt line: Which outcome was entered for the compound COc1nc2nccc-2c2occn12 in this test?
Response line: inactive

Prompt line: Which outcome was entered for the compound CCCCCCCCCCCCCCCC(=O)OCC(O)C1OC(=O)C(O)=C1O (stereo not given) in this test?
Response line: inactive

Prompt line: Which outcome was entered for the compound O=c1cc(-c2ccccc2)[nH]c2ccc(N3CCCC3)cc12 in this test?
Response line: active

###

System: SK-MEL-28
Assay: NCI tumour cell line growth inhibition, 48 h
Active and inactive are the calls of the source. Cut-off read from the data, not from the text of the source: active = GI50 up to about 1.1 µM and inactive = higher.
Provide the recorded GI50 for the entries that follow.

Here is how some compounds turned out for GI50.
Compound	Test Value
Oc1cnc2c(O)cccc2c1 [JINEOL]	76.6 µM (inactive)
CCCCN(CCCC)CC(C(=O)Nc1ccc([N+](=O)[O-])cc1[N+](=O)[O-])/C(C)=N\NC(=S)NN (stereo unspecified)	> 100 µM (inactive)
O=C1C(CO)=C[C@@H](O)[C@H]2O[C@@H]12 [EPOXYDON]	> 100 µM (inactive)
O=C1CCC(c2ccccc2)(c2ccccc2)CC1	> 100 µM (inactive)
COC(=O)c1ccc2n1C1CC3CC(CC2C3)C1	> 100 µM (inactive)

For every record below, what is its GI50?
1. OCCCSc1ccccc1SCCCO
2. CCCCNC1CCC2(SCCS2)c2[nH]c3ccccc3c21 (stereo unspecified)
3. Cc1cc2c(cc1C)OC(=O)CC2
4. Cc1c(N2CCOCC2)nc2ccc(Cl)cc2c1-c1ccccc1
5. CCOC(=O)C(=NN(C)c1ncccc1N)C(=O)OCC
6. C[C@H]1[C@H](C)CC[C@]2(C(=O)O)CCC3(COC(=O)/C=C/c4ccc(O)cc4)C(=CCC4[C@@]5(C)CC[C@H](O)C(C)(C)C5CC[C@]43C)[C@H]12 (stereo partly specified)

Response line:
> 100 µM (inactive)
34.3 µM (inactive)
> 100 µM (inactive)
> 100 µM (inactive)
> 100 µM (inactive)
10.8 µM (inactive)

###

Provide the recorded GI50 for the entries that follow.
Tested on: HCT-116
Assay: NCI tumour cell line growth inhibition, 48 h
The source made the active and inactive calls. Rule as the data show it: active = GI50 up to about 1.1 µM and inactive = higher.

Molecule	Parameter Measured	Test Value
CSc1ncnc2c1ncn2C1OC(CO)C(O)OC1O (stereo unspecified)	GI50	0.4 µM (active)
C[C@@H]([C@H]1CC[C@@]2(C)[C@@H]3CC[C@@H]4C(=CC3=CC[C@]12C)CC[C@H](N(C)C)C4(C)C)N(C)C [BUXAMINE A]	GI50	> 100 µM (inactive)
C[N+](C)(C)CC1CCCC1=O (stereo unspecified)	GI50	1.25 µM (inactive)
NC(=O)C(=Cc1ccc(CP(=O)(O)O)cc1)C(N)=O	GI50	> 100 µM (inactive)
Cc1nc2c(cc1C(=O)N/N=C/c1ccc([N+](=O)[O-])cc1)c(=O)n(C)c(=O)n2C	GI50	56.4 µM (inactive)

For every record below, what is its GI50?
1. Cc1c(O)c(=O)ccn1CCO
2. CC1=C(N(C)C)C(=O)c2nc3n(c2C1=O)CCC3OC(N)=O (stereo unspecified)

Response line:
["> 100 µM (inactive)", "15.4 µM (inactive)"]

###

Test system: MOLT-4
Assay: NCI tumour cell line growth inhibition, 48 h
The source made the active and inactive calls. Cut-off read from the data, not from the text of the source: active = GI50 up to about 1.1 µM and inactive = higher. Square brackets hold non-standard residues; d marks the D form. Peptide text beside a SMILES is read from it. * marks the point of attachment. ξ: configuration not given here. ξF = NC(Cc1ccccc1)C(=O)O; Cbz = O=C(OCc1ccccc1)*; Aib = CC(C)(N)C(=O)O
Form entry, call: pick from active, inactive

Compound	Class Assignment
CC(C)(NC(=O)OCc1ccccc1)C(=O)NC(Cc1ccccc1)C(=O)O (stereo not given) (Cbz-[Aib]-[ξF]-OH)	inactive
Cc1cc(C)nc(NS(=O)(=O)c2ccc(Nc3c4ccccc4nc4c(C(=O)N5CCN(CCO)CC5)cccc34)cc2)n1	inactive
O=C(C#Cc1ccccc1)Nc1ccccc1CC(c1c[nH]c2ccccc12)c1c[nH]c2ccccc12	inactive
COc1cc2c(cc1OC)C(=O)C(C1=C(SC(=N)N)C(=O)c3cc(OC)c(OC)cc31)C2 (stereo not given)	inactive
CC(C)N(C(=O)C12C3C4C1C1C4(C#N)C3C12C(=O)O)C(C)C (stereo not given)	inactive

Prompt line: Which outcome was entered for the compound COc1c(CC=C(C)C)c(O)c(C(CC(C)C)c2c(O)c3c(c(C(C)=O)c2O)OC(C(C)(C)O)C3)c(O)c1C(C)=O (stereo not given) in this test?
Response line: inactive

Prompt line: Which outcome was entered for the compound c1ccc(CSSSCc2ccccc2)cc1 [DIBENZYL TRISULFIDE] in this test?
Response line: active

Prompt line: Which outcome was entered for the compound Cc1nc(-c2ccc(Cl)cc2)cn2c1nc1ccccc12 in this test?
Response line: inactive

###

System: KM12
Assay: NCI tumour cell line growth inhibition, 48 h
Activity calls are given as the source filed them. Rule as the data show it: active = GI50 up to about 1.1 µM and inactive = higher.
Parameter Measured: GI50

Here is how some compounds turned out for GI50.
>>> print(df.to_string())
                                   compound  parameter_measured           test_value
0  CCCCN(CCCC)CC(C(=O)Nc1ccc([N+](=O)[O-])cc1[N+](=O)[O-])/C(C)=N\NC(=S)NN (stereo not given)                GI50  > 100 µM (inactive)
1  Cc1cn(CCCCOC(=O)NC(CCCNC(N)=O)C(=O)O)c(=O)[nH]c1=O (stereo not given)                GI50  > 100 µM (inactive)
2  CN1CCN(c2ccc3[nH]c(-c4ccc5[nH]c(CCCc6ccc(N(CCCl)CCCl)cc6)nc5c4)nc3c2)CC1                GI50  > 100 µM (inactive)
3  [O-][S+]1c2ccccc2N=C(c2ccc3ccccc3c2)CC1c1ccccc1 (stereo not given)                GI50   13.9 µM (inactive)
4                       Cc1c(O)c(=O)ccn1CCN                GI50  > 100 µM (inactive)

For every record below, what is its GI50?
1. COC(=O)C(NC(=O)c1ccccc1)C(c1ccc(Cl)cc1)P(=O)(OC)OC (stereo not given)
2. OC1CC(O)O[C@H](c2ccccc2)C1 (stereo not given in full)

Response line:
> 100 µM (inactive)
> 100 µM (inactive)

For every record below, what is its GI50?
1. OCCCSc1ccccc1SCCCO
2. Cc1c(C(=O)CSc2nc3cc([N+](=O)[O-])ccc3[nH]2)c(=O)n(-c2ccccc2)n1C
3. CC(C)C(/C=C/c1ccc(Cl)cc1)=N\NC(=O)N/N=C(/C=C/c1ccc(Cl)cc1)C(C)C

Response line:
["> 100 µM (inactive)", "> 100 µM (inactive)", "> 100 µM (inactive)"]

###

Test system: NCI-H522
Assay: NCI tumour cell line growth inhibition, 48 h
Activity calls are given as the source filed them. Cut-off read from the data, not from the text of the source: active = GI50 up to about 1.1 µM and inactive = higher.
Form entry, call: pick from active, inactive

Some solved cases for reference:
Compound	Class Assignment
COC(=O)Nc1nc2cc(C(=O)c3ccc[nH]3)ccc2[nH]1	active
Cc1ccc(S(=O)(=O)ON/N=C2/C3OC3[C@@H]3CCCC[C@H]23)cc1 (stereo partly drawn)	inactive
Clc1nc(Cl)c(Cc2ccccc2)c(Cl)n1	inactive
O=C(O)CNCc1c2ccccc2[n+]([O-])c2ccccc12	inactive
CC(N)C(=O)c1ccc(O)cc1 (stereo not drawn)	inactive

Prompt line: Which outcome was entered for the compound CCOC(=O)NC(Nc1ccc([N+](=O)[O-])cc1)(C(F)(F)F)C(F)(F)F in this test?
Response line: inactive

Prompt line: Which outcome was entered for the compound O=c1cnn(C2OC(C(O)CO)C(O)C2O)c(=O)[nH]1 (stereo not drawn) in this test?
Response line: inactive
